// data source = ChEMBL document CHEMBL1143391

tested on: Hepatitis C virus; assay: Antiviral activity against HCV RNA replication in human hepatoma cells by replicon assay; format: functional, organism-based, Hepacivirus hominis; conditions: read-out: EC90
Measured parameter: EC90
Give the number first and the unit second.

Examples from the recorded data:
Smiles input | Target or system | Measured parameter | Result
C=CCNC(=O)C(=O)[C@@H]1CCCCCCCO[C@@H](C)[C@H](NC(=O)N[C@H](CN2CCC(C)(C)CC2=O)C(C)(C)C)C(=O)N2C[C@H]3[C@@H]([C@H]2C(=O)N1)C3(C)C | Hepatitis C virus | EC90 | 0.06 µM
C=CCNC(=O)C(=O)[C@@H]1CCCCCCCOC[C@H](NC(=O)N[C@H](CN2CCC(C)(C)CC2=O)C(C)(C)C)C(=O)N2C[C@H]3[C@@H]([C@H]2C(=O)N1)C3(C)C | Hepatitis C virus | EC90 | 0.1 µM
C=CCNC(=O)C(=O)[C@@H]1CCCCCCCOC[C@H](NC(=O)N[C@H](CN2C(=O)CN(C)CC2=O)C(C)(C)C)C(=O)N2C[C@H]3[C@@H]([C@H]2C(=O)N1)C3(C)C | Hepatitis C virus | EC90 | 0.08 µM
C=CCNC(=O)C(=O)[C@@H]1CCCCCCCO[C@@H](C)[C@H](NC(=O)N[C@H](CN2C(=O)CN(C)CC2=O)C(C)(C)C)C(=O)N2C[C@H]3[C@@H]([C@H]2C(=O)N1)C3(C)C | Hepatitis C virus | EC90 | 0.06 µM

Query compound follows.
Find the measured EC90: item C=CCNC(=O)C(=O)[C@@H]1CCCCCCCO[C@@H](C)[C@H](NC(=O)N[C@H](CN2C(=O)C3CCC(C3)C2=O)C(C)(C)C)C(=O)N2C[C@H]3[C@@H]([C@H]2C(=O)N1)C3(C)C , target or system Hepatitis C virus.
0.03 µM

----------
Recorded EC90 values for a group of compounds are listed next.
system: Hepatitis C virus; assay: Antiviral activity against HCV RNA replication in human hepatoma cells by replicon assay; format: functional, organism-based, Hepacivirus hominis; conditions: read-out: EC90
Answer with a number only, understood to be in nM.

Compound | Result unit | EC90
CC(C)(C)NC(=O)N[C@H](C(=O)N1C[C@H]2[C@@H]([C@H]1C(=O)NC(CC1CCC1)C(=O)C(N)=O)C2(C)C)C(C)(C)C (stereo not given in full) | nM | 350
C=CCNC(=O)C(=O)[C@@H]1CCCCCCCOC[C@H](NC(=O)N[C@H](CN2C(=O)C3CCC(C3)C2=O)C(C)(C)C)C(=O)N2C[C@H]3[C@@H]([C@H]2C(=O)N1)C3(C)C | nM | 30
C=CCNC(=O)C(=O)[C@@H]1CCCCCCCOC[C@H](NC(=O)N[C@H](CN(C)S(=O)(=O)c2cccs2)C(C)(C)C)C(=O)N2C[C@H]3[C@@H]([C@H]2C(=O)N1)C3(C)C | nM | 150
C=CCNC(=O)C(=O)[C@@H]1CCCCCCCOC[C@H](NC(=O)N[C@H](CN2C(=O)CC(C)(C)CC2=O)C(C)(C)C)C(=O)N2C[C@H]3[C@@H]([C@H]2C(=O)N1)C3(C)C | nM | 50

# ---- query compound ----
Which measured EC90 value corresponds to C=CCNC(=O)C(=O)[C@@H]1CCCCCCCOC[C@H](NC(=O)N[C@H](CN2CCCCC2=O)C(C)(C)C)C(=O)N2C[C@H]3[C@@H]([C@H]2C(=O)N1)C3(C)C ?
160
